target: RSV prefusion F (preF, DS-Cav1) (Respiratory syncytial virus); test: BLI, IgG on sensor, 100 nM antigen
I'd appreciate it if you could supply pKd values for the items below.
Give bare numbers, as −log10 of the molar value.

ADI-41273 (antibody, V domains shown) VH: EVQLLESGGDLVRPGGSLRLSCTASGFSFSSSEMNWVRQAPGKGLEWVASINSGGDDIYYADSVKGRFTISRDNAKNSLSLQMDSLRAEDTALYYCARSRSGYSSGWSRFFGNWGQGTLVTVSS VL: QSALTQPRSVSGSPGQSVTISCTGTISDIGAYNYVSWYQQHPGKAPKVMIYDVSKRPSGVPDRFSGSKSGFTASLTISGLQAEDEADYYCCSYAGRWVFGGGTKLTVL: 8.51

Now look at this one.
### Prompt Look up and state reported pKd for ADI-41288 (antibody, V domains shown) VH: EVQLVESGGGLVQPGGSLRLSCAASGFTFSSYAMSWVRQAAGKGLEWVSAISGSGDDTFYADSVKDRFIISRDSSKRKVYLQMNSLRVEDTAVYYCAKTDIMVTFGGVVVDAYYFDHWGQGTLVTVSS VL: ETTLTQSPGTLSLSPGERATLSCRASQFVFRSYLAWYQQRPGQPPRLLIYGASSRATGIPDRFSGRGSGTEFTLTISRLEPEDFAMYYCQHYDSSPPGTFGGGTKVEIK
### Response 8.05
